Recorded values, source the supplement of paper PMC9170038.

Can you tell me apparent KD of K4 kissing-loop reporter for the items I'm about to list?
system: K4 kissing-loop RNA reporter; assay: apparent KD of K4 kissing-loop reporter; higher = weaker reporter binding; details: Eterna round: R107; input ligand: none;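 also: bound reporter read as fluorescence of individual clusters on recovered sequencing chips by microscopy, with normalized cluster intensities fitted with a binding model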
One number for each entry, in nM.

Consider the following illustrative entries.
[
  {
    "constructSequence": "AGGAGCGUGCGAUGAAAAUCGCACGCUCCUCGAGGACCGGUACGGCCGCCACUCGCUCGCGCCGAGUGAUGUUCGGCCGGCGAAC [#2 Same State - Tryptophan A Attempt #8 (HarryS)]",
    "tgt": "K4 kissing-loop RNA reporter",
    "apparent KD of K4 kissing-loop reporter (nM)": 234
  },
  {
    "constructSequence": "AGUCCACUCUAAAGAGUGGACCUAAGGGAUACCAGUGAUGUUGGUCACCCUUGGCAGCCCUCUGUCAUCGAUAAAGAUGGCAGUA",
    "tgt": "K4 kissing-loop RNA reporter",
    "apparent KD of K4 kissing-loop reporter (nM)": 118
  },
  {
    "constructSequence": "UGACUUGCCUGAGGAUAUCUAGGAUAUGGAUAAAAUAAAAUAAUAAUGGAGUGAUGUUCCAGAAGGAGAGAAGGCAGGUAAGUCU [KL-XFMN-B16 #DoubleAptamer #SwitchBubble]",
    "tgt": "K4 kissing-loop RNA reporter",
    "apparent KD of K4 kissing-loop reporter (nM)": 96.1
  },
  {
    "constructSequence": "CAGACAUGCGGUAGGUUCAAGCGCUGGGAAGGAGCGCAGAUGACUGCAGGUAGGUCGCCCAGUGAUGUUGGGCUUUCCACCUAUG [Onbeenbi]",
    "tgt": "K4 kissing-loop RNA reporter",
    "apparent KD of K4 kissing-loop reporter (nM)": 120
  },
  {
    "constructSequence": "UUGUUUUACUGAAGGAGCGGCAAUUGAUACGUAGAUAUAGUGAUGUUAUAUAAGAUAGAGAGCCAGGUAGGUCGCAGAUGUGUUU [ExArgB.T]",
    "tgt": "K4 kissing-loop RNA reporter",
    "apparent KD of K4 kissing-loop reporter (nM)": 180
  }
]

Below: the item to evaluate.
Suppose we examine the sequence UCCUGCACGGUCGAUACCAGCCUAUGCAGUGAUGUUGUAAGGUUGUCACUUUAGUACGAAGGCCCUUGGCAGCGAUGAUGUAACA [theeternabot_exclusion_KL_Theo_B_41] ; what apparent KD of K4 kissing-loop reporter value has been reported?
604

----------
tested on: MS2 coat protein; test: apparent KD of MS2 coat protein; designed switch direction (-1 OFF switch, 1 ON switch): -1; higher = weaker reporter binding; details: input ligand: FMN 200 uM
Note that class boundaries on apparent KD of MS2 coat protein are zone 1 (below 30 nM), zone 2 (30 nM to below 200 nM), zone 3 (200 nM or more)

Completed entries (count: 3):
[
  {
    "constructSequence": "AGAUAACAUGAGGAUCACCCAUGUGAGGAUAUUUACCCAAGAGCUUCGGCUCUCAGGUGAAGAAGGCACGUUGA [EX1 #59] (Eterna round: R97, puzzle: Exclusion 1)",
    "assignedLabel": "zone 2"
  },
  {
    "constructSequence": "AAUCCACAUGAGGAUCACCCAUGUGAGGAUAUGAUACUAUGUACUUCGGUACAUAGUAUCAGAAGGCACAUAAA [Ex1-3: 51] (Eterna round: R96, puzzle: Exclusion 1)",
    "assignedLabel": "zone 2"
  },
  {
    "constructSequence": "GUAUGUGAGAGAGGAUAUCGUGUACAAAGUACACGAGAAGGCUUCACAUGAGGAUCACCCAUGUACCGAGGUGAAACACCUUGA [Omei Exc(NG)1 Bv9] (Eterna round: R96, puzzle: Exclusion NG 1)",
    "assignedLabel": "zone 3"
  }
]

Hey, which category is CCAAGCUUUUUCAUUAACAACAUGAGGAUCACCCAUGUGUAAGCAAUUAUGUUUGGGCUCUUUAGUGCUCGUCUUAU [JR_STOV1_Sub042] (Eterna round: R97, puzzle: Sensor, turn-off variant 1) in, do you know?
zone 1

Hey, which category is CUGUGCACGCUGCGAUCCUACAUGAGGAUCACCCAUGUGGUCUGGUGGCGUGGGUCACCGGACUUGGCUCGUCUUGC [salish99_S_TOV1_R5_071] (Eterna round: R97, puzzle: Sensor, turn-off variant 1) in, do you know?
zone 2

Hey, which category is UAACAUGUCUGAGGAUAUCUGCACGAUUAGUGCAGAGAAGGCAGAACAUGAGGAUCACCCAUGUAGAUCAUUAAUUAAUUAAUU [ENG1/7-B1] (Eterna round: R96, puzzle: Exclusion NG 1) in, do you know?
zone 3

Hey, which category is CGGAUGUGAGGAUAUACAUGAGGAUCACCCAUGUGUGCCAGCUAGAUGACUGGCACUUGUAGAAGGCACGUCUG [Mat - Exclusion 3 - Mod of JL D91] (Eterna round: R96, puzzle: Exclusion 3) in, do you know?
zone 1

Hey, which category is GCUGGUCGAGGAUAUACAUAACGUGCUUCGGCACGAGAUCUACAUGAGGAUCACCCAUGUAGAAGGCGACCAGC [E2/10-A1] (Eterna round: R97, puzzle: Exclusion 2) in, do you know?
zone 2
